Hey, just so you know, these numbers are from patent US9212209B2.

experiment: Liver microsome stability; conditions: Table 9
As shown below, each of these compounds has a reported Stability value.
The reply should be a number in min, with the unit left off.

Look over these answered cases.
| COMPOUND | Stability / min |
| --- | --- |
| CC(C)c1cc(C(=O)Nc2ccc(F)c(Cl)c2)no1 [LDN-75654] | 15 |
| COc1cc2c(c(OC)c1OC)C(c1cc(Cl)ccc1F)CC(=O)N2 (centres unmarked) [LDN-212351] | 45 |
| CC(C)c1cc(C(=O)Nc2nc3ccccc3[nH]2)no1 [LDN-212016] | 3 |

Could you now consider this next compound?
Summary for this compound, O=C(Nc1ncc(C2(O)CCC2)s1)c1ccc(F)c(Cl)c1 [LDN-212014] : Stability is 39
